measured on: T1, human BCMA on BCMA expressing cell lines (human, UniProt Q02223 1-184)
T1 sequence: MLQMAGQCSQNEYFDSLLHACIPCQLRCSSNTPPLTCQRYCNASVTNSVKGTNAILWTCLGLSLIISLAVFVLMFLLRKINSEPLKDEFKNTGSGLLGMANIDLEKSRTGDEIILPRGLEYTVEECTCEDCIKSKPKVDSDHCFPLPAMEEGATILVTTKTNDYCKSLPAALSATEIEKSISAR
assay details: cell-based or functional assay
The following binders are listed with their measured TDCC OPM-2 EC50 values.
Dear colleague, please return just the value in pM, with no unit written.

binder	result units	TDCC OPM-2 EC50
01F07-M34G TriTAC (other, not shown: large carriers; small tags and cut ends, trispecific; also called 01F01-M34G) VHH: EVQLVESGGGLVQPGRSLTLSCAASTNIFSTSPGGWYRQAPGKQRELVAAIHGFSTIYADSVKGRFTISRDNAKNSIYLQMNSLRPEDTALYYCNKVPWGDYHPGNVYWGQGTQVTVSS	pM	5.6
01F07-M34Y TriTAC (other, trispecific; not shown: anti-albumin domain, anti-CD3 domain and the linkers of the TriTAC; the C-terminal His6 that follows them is left out) VHH: EVQLVESGGGLVQPGRSLTLSCAASTNIFSTSPYGWYRQAPGKQRELVAAIHGFSTIYADSVKGRFTISRDNAKNSIYLQMNSLRPEDTALYYCNKVPWGDYHPGNVYWGQGTQVTVSS	pM	3.6

Please examine the following record next.
Suppose we examine the binder BCMA targeting trispecific protein 02E05 (other, trispecific; also called 02E05 TriTAC; not shown: the C-terminal 6xHis tag follows those domains and is left out) VHH: EVQLVESGGGLVQPGRSLTLSCAASTNIFSRSPMGWYRQAPGKQRELVAAIHGISTLYADSVKGRFTISRDNAKNSIYLQMNSLRPEDTALYYCNKVPWGDYHPGNVYWGQGTQVTVSS ; what TDCC OPM-2 EC50 value has been reported? 12

Values were extracted from patent US20240327534A1.
